# Test target: T1, human GFRα3 expressed with a C-terminal mFc tag (human)
# T1 construct: also called hGFRα3-mFc
# T1 chain: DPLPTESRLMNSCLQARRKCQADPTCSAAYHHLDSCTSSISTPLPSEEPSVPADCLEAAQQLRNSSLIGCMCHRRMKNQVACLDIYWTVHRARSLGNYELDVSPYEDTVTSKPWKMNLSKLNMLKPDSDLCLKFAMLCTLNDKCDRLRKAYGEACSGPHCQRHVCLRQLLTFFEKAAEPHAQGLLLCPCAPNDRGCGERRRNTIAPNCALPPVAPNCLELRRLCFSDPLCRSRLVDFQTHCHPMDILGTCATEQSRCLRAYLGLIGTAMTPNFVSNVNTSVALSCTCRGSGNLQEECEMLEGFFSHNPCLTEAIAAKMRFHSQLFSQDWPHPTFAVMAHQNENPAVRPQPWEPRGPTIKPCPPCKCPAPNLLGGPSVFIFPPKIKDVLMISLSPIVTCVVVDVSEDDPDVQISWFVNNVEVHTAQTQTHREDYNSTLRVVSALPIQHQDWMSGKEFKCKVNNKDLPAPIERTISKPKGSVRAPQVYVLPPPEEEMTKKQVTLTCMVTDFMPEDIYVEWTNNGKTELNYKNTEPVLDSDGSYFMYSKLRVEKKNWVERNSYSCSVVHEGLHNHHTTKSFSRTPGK
# Assay name: SPR, Ab captured, 25C
Metric: t1/2 (h)
Respond numerically; units are h and should not be typed.

Challenge: Please list t1/2 recorded for the binder H4H2292S (antibody, human IgG4, V domains shown, human IgG4 Fc (H4H)) VH: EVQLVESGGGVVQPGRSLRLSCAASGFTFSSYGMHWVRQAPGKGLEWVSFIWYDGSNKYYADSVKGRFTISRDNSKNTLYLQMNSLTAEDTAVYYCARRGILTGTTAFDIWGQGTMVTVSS VL: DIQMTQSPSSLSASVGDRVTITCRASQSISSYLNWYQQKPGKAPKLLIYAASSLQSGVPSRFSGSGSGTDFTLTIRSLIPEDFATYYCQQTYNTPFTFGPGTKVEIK
Response given: 192

Challenge: Please list t1/2 recorded for the binder H4H2342P (antibody, human IgG4, V domains shown, human IgG4 Fc (H4H)) VH: EVQLLESGGGLVQPGGSLRLSCAASGFTFSTYAMSWVRQAPGKGLEWVSAIRGNGVNTYYGDSMKGRFTISRDNSKDTLYLQMNSLRAEDTAVYYCAKNKWELLVFEYWGQGTLVTVSS VL: DIQMTQSPSSLSASVGDRVTITCRASQDISNYLAWYQQKPGKVPKLLIYAASTLQSGVPFRFSGSGSGTDFTLTISSLQPEDVATYYCQKYNSAPPFGPGTKVDIK
Response given: 192

Challenge: Please list t1/2 recorded for the binder H4H2352S (antibody, human IgG4, V domains shown, human IgG4 Fc (H4H); also called H4H2352S-1) VH: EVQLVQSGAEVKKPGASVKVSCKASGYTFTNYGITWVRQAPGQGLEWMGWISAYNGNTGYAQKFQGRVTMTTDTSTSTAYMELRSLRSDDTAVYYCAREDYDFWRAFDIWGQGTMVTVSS VL: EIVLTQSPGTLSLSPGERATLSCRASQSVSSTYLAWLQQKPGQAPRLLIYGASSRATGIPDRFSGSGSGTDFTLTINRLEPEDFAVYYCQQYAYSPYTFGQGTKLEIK
Response given: 192

Challenge: Please list t1/2 recorded for the binder H4H2357S (antibody, human IgG4, V domains shown, human IgG4 Fc (H4H)) VH: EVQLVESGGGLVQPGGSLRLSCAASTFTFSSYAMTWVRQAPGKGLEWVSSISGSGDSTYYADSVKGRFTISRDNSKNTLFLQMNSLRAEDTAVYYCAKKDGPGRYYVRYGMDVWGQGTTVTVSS VL: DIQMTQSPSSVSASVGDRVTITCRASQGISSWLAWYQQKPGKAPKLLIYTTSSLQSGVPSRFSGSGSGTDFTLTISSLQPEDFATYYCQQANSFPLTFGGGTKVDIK
Response given: 7.63
